System: multiple myeloma cell line NCI-H929
Assay: H929 Cell Viability Assay
Format: cell-based, human
Conditions: Homo sapiens, NCI-H929, 48 h, NCI-H929 cells, Celltiter-Glo
Below is a list of entries, each paired with its recorded EC50 value.

Known results for compounds:
[[record]]
compound = "Cc1ccc(/C=C/c2csc(NC(=O)c3cccn3Cc3ccncc3)n2)nc1F [Compound B48]"
result = "> 25 µM"

[[record]]
compound = "O=C(O)CCCCn1cccc1C(=O)Nc1nc([C@H]2CCCN2c2ccccc2)cs1 [Compound C11]"
result = "> 25 µM"


Turning now to a further record.
(Q) Query: EC50; subject: CC(=O)N1CCC(C(C)c2ccc(N3CCC[C@@H]3c3csc(NC(=O)c4cccn4Cc4ccnc(F)c4)n3)cc2)CC1 (stereo partly drawn) [Compound A161]
(A) 12.4 µM
